Test: VP16 counterscreen qHTS for inhibitors of ROR gamma transcriptional activity;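 further: Gal4-VP16 expression switched on by copper sulfate through the metallothionein promoter; nearly all actives have a fitted effect of over 50% in size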
Conditions: Drosophila S2 Gal4-VP16 UAS-luciferase, luminescence, 20 h; series mostly up to 53.6 µM
About 11,000 (3.5%) of roughly 310,000 compounds were called active. Another 8% or so got no clear call; they are omitted. The call rests on the fitted dose curve; in most records, active means well fitted inhibition curve with a large enough effect; inconclusive means small, poorly fitted or top-dose-only effect, or effect the other way; inactive means flat fitted curve, though single readings scatter. The full list was thinned out, with actives kept by preference.
Outcomes: active, inactive

| molecule | qualitativeLabel |
| --- | --- |
| CCc1ccc(-c2nc(SCC(=O)NC3CCCC3)n[nH]2)cc1 | active |
| Cc1cc(NC(=O)COc2ccc(Cl)cc2Cl)n(CCC#N)n1 | inactive |
| Cc1cc(Cl)ccc1NC(=S)NCCCN1CCCC1=O | inactive |
| Cc1cc(Cl)c2oc(C(=O)N(C)C(C)c3ccccn3)c(C)c2c1 (stereo not given) | inactive |
| CCOC(=O)N1CCN(C(=O)COc2ccc(Cl)cc2C)CC1 | inactive |
